experiment: inhibition of NOD2-driven NF-kB reporter – cell-based, luminescence, uHTS, HEK293 (AID 1566); settings: HEK293 NOD2/NF-kB luciferase reporter, at 4 µM
The whole screen tested about 290,000 compounds, of which about 1,800 (0.62%) were called active. Cut-off read from the data, not from the text of the source: active = inhibition above about 50%; inactive = the rest. Only a selection was taken, and actives are over-represented in it overall.
Possible outcomes: t for active, f for inactive

1. COc1cc(C(=O)OCC(=O)N2CCCCC2C)ccc1OCc1c(C)noc1C (configuration not stated)
f
2. COC(=O)c1ncn(C2OC(COC(C)=O)C(OC(C)=O)C2OC(C)=O)n1 (configuration not stated)
f
3. COc1cccc(-c2nnc3sc(C4CCCCC4)nn23)c1
t
4. Cn1c(NC2CCCCC2)cc(=O)n(C)c1=O
f
5. Cc1cccc(NC(=O)NCc2ccc3c(c2)cc(C)n3C)c1
f
6. COCC(C)n1c(C)cc(C(=O)COC(=O)CNC(=O)c2ccccc2)c1C (configuration not stated)
f
7. CC(C(=O)Nc1cc([N+](=O)[O-])ccc1Cl)N1CCN(c2ccc(O)cc2)CC1 (configuration not stated)
f
8. CCCNC(=O)Cn1cnc2sc(C(=O)N3CCN(CCC)CC3)c(C)c2c1=O
f
9. CCc1nc(SCC(=O)N2CCCc3ccccc32)c2oc3ccccc3c2n1
f
10. COc1cc(C(=O)Nc2sc3c(c2C(=O)O)CCC3)cc(OC)c1OC
f
11. O=C(Nc1nccs1)c1ccc(N2CCOCC2)c([N+](=O)[O-])c1
f
12. C(=N\Nc1ccc2ccccc2n1)/c1ccc2c(c1)OCCO2
t
13. C(=N\Nc1nc2ccccc2[nH]1)/c1ccc2c(c1)OCCO2
f
14. O=C(COC(=O)CCC(=O)c1cccs1)Nc1ccc(Cl)cn1
f
15. O=C(Nc1nc(-c2ccc(-c3ccccc3)cc2)cs1)c1cc([N+](=O)[O-])ccc1N1CCOCC1
f
16. COc1ccc(-c2nnc3sc(C4CCCCC4)nn23)cc1OC
f
17. N#Cc1ccccc1NC(=O)C1SC(=Nc2ccccc2)C(C(=O)Nc2ccc(Cl)cc2)=C1N (configuration not stated)
t
18. COC(=O)c1sccc1NC(=O)CSc1ccccc1NS(=O)(=O)c1ccccc1Cl
f
19. C(=N\Nc1ccccn1)/c1ccc2c(c1)OCCO2
f
20. COc1cc(C(=O)Nc2scc(-c3ccc(C)cc3)c2C(=O)O)cc(OC)c1OC
f
21. COc1cc(NC(=O)C2CCCCC2)c2ncccc2c1
f
22. COc1ccc(/C=C/C(=O)Nc2ccccc2C(F)(F)F)cc1
f

----------
test: inhibition of NOD2-driven NF-kB reporter – cell-based, luminescence, uHTS, HEK293 (AID 1566); settings: HEK293 NOD2/NF-kB luciferase reporter, at 4 µM
The campaign covered roughly 290,000 compounds. About 1,800 (0.62%) were called active. No stated cut-off is given here; in the data, active means inhibition above about 50%; inactive means the rest. The full list was thinned out, with actives kept by preference.
Possible outcomes: t for active, f for inactive

1. O=[N+]([O-])c1ccc(Sc2cccc[n+]2[O-])c2nonc12
t
2. O=C(CC(Nc1ccccc1Cl)C(=O)O)c1ccccc1 (stereo not drawn)
f
3. Cc1nnc(SCc2nnc(-c3ccc(Cl)cc3)o2)n1-c1ccccc1
f
4. COc1ccc(OC)c(S(=O)(=O)Nc2ccc(OCC(=O)O)cc2)c1
f
5. CCOC(=O)C1CCN(C(=O)COC(=O)c2ccc(Br)o2)CC1
f
6. O=[N+]([O-])c1ccc(Nc2ccccc2O)c2nonc12
f
7. COc1cc2cc(CN(CCc3ccccc3C)C(=S)NCCCN3CCOCC3)c(=O)[nH]c2cc1OC
f
8. Cc1cc(/C=C2\SC(=O)N(C)C2=O)c(C)n1-c1ccc(O)cc1
f
9. O=C(Oc1ccc(Cl)c2cccnc12)c1cccc([N+](=O)[O-])c1
f
10. CC(C)Cc1cc(C(=O)N2CCCC(C(=O)c3cc(F)ccc3F)C2)n(C)n1 (stereo not drawn)
f
11. CCC(=O)N1CCc2cc(S(=O)(=O)CCC(=O)NC(C)CC)ccc21 (stereo not drawn)
f
12. CCCc1cc(C(=O)Nc2ccc(C(=O)c3ccc(F)cc3)cc2)n(C)n1
f
13. Cc1cc(/C=C2\SC(=S)NC2=O)c(C)n1-c1cccc(O)c1
f
14. Cc1ccc(C#N)c(SCc2nnc(-c3ccc(Cl)cc3)o2)n1
t
15. O=C(Oc1cccc2cccnc12)c1cccc([N+](=O)[O-])c1
f
16. CCCc1cc(C(=O)Nc2ccc(C(=O)c3ccccc3)cc2)n(C)n1
t
17. Cc1nn(-c2ccccc2Cl)c(Cl)c1/C=N/Nc1cccc(C(=O)O)c1
f
18. COc1cccc(CNC(=O)C2CCC(=O)N(C3CC3)C2)c1OC (stereo not drawn)
f
19. Cc1csc(SCc2nnc(-c3ccc(Cl)cc3)o2)n1
f
20. COc1ccc(NC(C)=O)cc1S(=O)(=O)NC(Cc1ccccc1)C(=O)O (stereo not drawn)
f
21. Cc1cc(C(=O)Nc2cccc(/C=C/C(=O)O)c2)c(C)o1
f
22. O=C(NCCN1CCOCC1)c1ccc(Cl)c(Cl)c1
f
23. N#Cc1c(-c2ccccc2)cc(-c2ccccc2)nc1SCc1nnc(-c2ccccc2)o1
f

The origin of these recorded values is PubChem BioAssay AID1566.
